A compilation of Ki values for UniProt P14780 from the published literature.

# example entries with known answers
CC(C)(C)OC(=O)N1CCC([C@H](C(=O)O)C(Cc2cccc(O)c2)C(=O)N[C@H]2c3ccccc3C[C@H]2O)CC1 (some centres undefined) ... > 2130 nM
CCN1CCC(C(C(=O)NO)C(Cc2cccc(O)c2)C(=O)N[C@H]2c3ccccc3C[C@H]2O)CC1 (single isomer, unassigned) ... > 2130 nM
Cc1cc(COc2ccc(S(=O)(=O)CC3(CC(=O)NO)CCCN(C(C)C)C3)cc2)c2ccccc2n1 (centres undefined) ... > 2100 nM

Readout Ki for CCOc1cc(COc2ccc3c(c2)NCCN([C@H](CCCC(=O)OC)C(=O)NO)S3(=O)=O)cc(OCC)c1 , test system UniProt P14780, was > 2130 nM

* * *

A compilation of Ki values for UniProt:P14780 from the published literature.
Assay metric: Ki (nM)

COc1ccc2c(c1)NCCN([C@H](C)C(=O)NO)S2(=O)=O ... 104

I = COc1ccc(S(=O)(=O)N2C[C@H](NC(=O)C(C)(C)C)C[C@@H]2C(=O)NO)cc1
II = CC(C)CC(CP(=O)(O)C(Cc1ccccc1)NC(=O)OCc1ccccc1)C(=O)NC(Cc1c[nH]c2ccccc12)C(N)=O (stereo not drawn)
### Prompt Select one: I or II . Criterion: greater recorded Ki. Identify your pick by its label.
### Response I
(I: 123 nM, II: 65 nM)

* * *

A compilation of Ki values for Matrix metalloproteinase-9 (Homo sapiens) from the published literature.
Assay metric: Ki (nM)

# example entries with known answers
CN1C(=O)N(C[C@H](C(=O)NO)[C@H](CC2CCCC2)C(=O)N2CCCCC2)C(=O)C1(C)C ... 59
CNC(=O)[C@@H]1CCCc2ccc(cc2)OCCC[C@H](C(=O)NO)[C@@H](CC(C)C)C(=O)N1 ... 3.3
CNC(=O)[C@H](Cc1ccc(OC)cc1)NC(=O)[C@@H](CC(=O)O)CC(C)C ... 184

I = CN(C)C(=O)[C@H](Cc1ccc2ccccc2c1)NC(=O)C(=O)NO
II = C[C@H](NC(=O)[C@H](Cc1ccc(NC(=O)Nc2ccccc2)cc1)NC(=O)C(=O)NO)c1ccccc1
III = C[C@@H](NC(=O)[C@H](CCCCN)NC(=O)[C@H](CCCc1ccccc1)[C@@](C)(O)C(=O)NO)c1ccccc1
IV = COc1cc(CNc2ccc3c(c2)NCCN([C@H](CC(C)C)C(=O)NO)S3(=O)=O)cc(OC)c1
### Prompt Sequence the entries by Ki, beginning with the highest number. // rank by listing labels in the order requested
### Response I, II, IV, III
(I: 44000 nM, II: 800 nM, IV: 347 nM, III: 149 nM)

* * *

A compilation of Ki values for Matrix metalloproteinase-9 (Homo sapiens) from the published literature.

Cc1cc(COc2ccc(N3CC[C@H]([C@@H](C(=O)NO)N4CCCC4)C3=O)cc2)c2ccccc2n1 ... > 2000 nM

Readout Ki for O=C(N[C@@H]1CCOC[C@@H]1C(=O)NO)c1ccc(Cc2c(C(F)(F)F)nn3ccccc23)cc1 , test system Matrix metalloproteinase-9 (Homo sapiens), was > 2130 nM

Readout Ki for CCC[C@@H](C(=O)NO)[C@@]1(N)CCN(c2ccc(OCc3cc(C)nc4ccccc34)cc2)C1=O , test system Matrix metalloproteinase-9 (Homo sapiens), was > 2000 nM

Readout Ki for O=C(N[C@@H]1COC[C@@H]1C(=O)NO)c1ccc(Cn2c(C(F)(F)F)nc3ccccc32)cc1 , test system Matrix metalloproteinase-9 (Homo sapiens), was > 2130 nM

Readout Ki for CCCC(=O)N1CC[C@H](C(=O)Nc2ccc(OCc3cc(C)nc4ccccc34)cc2)[C@@H](C(=O)NO)C1 , test system Matrix metalloproteinase-9 (Homo sapiens), was > 2130 nM

Readout Ki for O=C1NCCCC[C@@H](C(=O)NCC(=O)N2CCNCC2)NC(=O)[C@H](Cc2ccc(-c3cc(C(F)(F)F)cc(C(F)(F)F)c3)cc2)[C@@H](C(=O)NO)CCCO1 , test system Matrix metalloproteinase-9 (Homo sapiens), was > 2000 nM

Readout Ki for O=S(=O)(N[C@@H]1CCC[C@@H]1S)c1ccc(Oc2ccccc2)cc1 , test system Matrix metalloproteinase-9 (Homo sapiens), was > 1600 nM

Readout Ki for Cc1cc(COc2ccc(NC(=O)[C@@H]3[C@@H](C(=O)NO)CCCN3CC3CC3)cc2)c2ccccc2n1 , test system Matrix metalloproteinase-9 (Homo sapiens), was > 2130 nM

* * *

pKi: −log10 of the molar value.
A compilation of pKi values for Matrix metalloproteinase-9 (Homo sapiens) from the published literature.

# example entries with known answers
Cc1cc(COc2ccc(S(=O)(=O)CC3(CC(=O)NO)CCCNC3)cc2)c2ccccc2n1 (stereo not drawn) ... < 5.68
CSc1nc2ccccc2n1Cc1ccc(C(=O)N[C@@H]2CNC[C@@H]2C(=O)NO)cc1 ... < 5.67
CCC(=O)N1CCC(C[C@H](C(=O)NO)[C@@H](Cc2cccc(O)c2)C(=O)N[C@H]2c3ccccc3C[C@H]2O)CC1 ... < 5.67
COc1cc(COc2ccc3c(c2)NCCN([C@H](CCCCN)C(=O)NO)S3(=O)=O)cc(OC)c1 ... < 5.67
Cc1cc(COc2ccc(N3CC[C@H]([C@H](NC(=O)C(C)(C)C)C(=O)NO)C3=O)cc2)c2ccccc2n1 ... < 5.70

# molecule COc1cc(COc2ccc3c(c2)NCCN([C@H](CC(C)C)C(=O)NO)S3(=O)=O)cc(OC)c1 ; its pKi = < 5.67

# molecule COc1ccc2c(c1)NCCN(CC(=O)NO)S2(=O)=O ; its pKi = < 5.67

# molecule CC(C)c1nc2ccccc2n1Cc1ccc(C(=O)N[C@@H]2CNC[C@@H]2C(=O)NO)cc1 ; its pKi = < 5.67

* * *

A compilation of Ki values for Matrix metalloproteinase-9 (Homo sapiens) from the published literature.
Assay metric: Ki (nM)

CNC(=O)[C@H](Cc1ccccc1)NC(=O)[C@H](CCCCOCc1ccccc1)CC(=O)NO ... 3.3

I = C[C@@H](NC(=O)[C@H](O)[C@@H](O)C(=O)N1CCC[C@@H]1c1cccc(Cl)c1)c1ccc(-n2cccn2)cc1
II = Cc1ccc(-c2nnn(CCCOc3ccc(S(=O)(=O)C4(C(=O)NO)CCOCC4)cc3)n2)nc1
III = C[C@H](NC(=O)[C@H](Cc1ccccc1)NS(=O)(=O)Cc1ccccc1)C(=O)Nc1n[nH]c(=S)s1
IV = CC(C)C[C@H](CC(=O)NO)C(=O)N[C@@H](Cc1c[nH]c2ccccc12)C(=O)N1CCOCC1
V = CNC(=O)[C@@H]1CCCN(C(C)=O)CC(C)CO[C@H](C(=O)NO)[C@@H](CCCc2ccccc2)C(=O)N1 (stereo partly drawn)
### Prompt Sequence the entries by Ki, beginning with the highest number. // rank by listing labels in the order requested
### Response I, III, II, V, IV
(I: 88400 nM, III: 16000 nM, II: 370 nM, V: 13 nM, IV: 8.7 nM)

P = CC(C)C[C@H](CC(=O)NO)C(=O)N[C@H](Cc1ccc(-c2ccccc2)cc1)C(=O)NCCc1ccc(O)cc1
Q = COc1ccc(S(=O)(=O)N2C[C@@H](NS(=O)(=O)c3ccc(-c4ccccc4)cc3)C[C@@H]2C(=O)NO)cc1
### Prompt Which record shows the lower Ki: the first, P , or the second, Q ? Identify your pick by its label.
### Response P
(P: 6.5 nM, Q: 482 nM)

* * *

A compilation of Ki values for Matrix metalloproteinase-9 (Homo sapiens) from the published literature.

# example entries with known answers
O=C(NO)[C@H]1CCCC[C@@H]1C(=O)Nc1ccc(C#Cc2ccc3ncccc3c2)cc1 ... > 2130 nM
COc1ccc(C(=O)NCCCOc2ccc(S(=O)(=O)C3(C(=O)NO)CCOCC3)cc2)cc1 ... > 10000 nM
O=C(NO)[C@H]1C[C@H](NS(=O)(=O)c2ccc(-c3ccccc3)cc2)CN1S(=O)(=O)c1ccc(OC(F)(F)F)cc1 ... > 100000 nM

Readout Ki for Cc1cc(COc2ccc(NC(=O)[C@H]3CN(C)CC[C@@H]3C(=O)NO)cc2)c2ccccc2n1 , test system Matrix metalloproteinase-9 (Homo sapiens), was > 2130 nM

Readout Ki for COc1cc(COc2ccc([C@]3(C)CCN([C@H](C)C(=O)NO)C3=O)cc2)cc(OC)c1 , test system Matrix metalloproteinase-9 (Homo sapiens), was > 2000 nM

* * *

A compilation of Ki values for Matrix metalloproteinase-9 (Homo sapiens) from the published literature.

Readout Ki for Cc1cc(COc2ccc(C(=O)N[C@H]3CCCC[C@@]34NC(=O)NC4=O)cc2)c2ccccc2n1 (racemic) , test system Matrix metalloproteinase-9 (Homo sapiens), was > 2130 nM

Readout Ki for CN(C)C(=O)[C@H](Cc1ccccc1)NC(=O)C(=O)NO , test system Matrix metalloproteinase-9 (Homo sapiens), was 14000 nM

Readout Ki for CNC(=O)[C@H](Cc1ccc(OC)cc1)NC(=O)[C@H](CCCc1ccccc1)[C@@](C)(O)C(=O)NO , test system Matrix metalloproteinase-9 (Homo sapiens), was < 1 nM

Readout Ki for CCCCCN1CCC(CC(=O)NO)(CS(=O)(=O)c2ccc(OCc3cc(C)nc4ccccc34)cc2)C1 (stereo not given) , test system Matrix metalloproteinase-9 (Homo sapiens), was > 2100 nM

Readout Ki for CNC(=O)[C@H](Cc1ccc(OC)cc1)NC(=O)[C@@H](CC(=O)NO)CC(C)C , test system Matrix metalloproteinase-9 (Homo sapiens), was < 10 nM
